assayed-target: Inositol hexakisphosphate kinase 1 (Homo sapiens)
method: Primary qHTS assay for small molecule inhibitors of Inositol hexaphosphate kinase 1 (IP6K1); further: series mostly up to about 58 µM; on the % scale 0 is the no-effect control and ±100 the full control effect
stated-conditions: ADP-Glo luminescence, 2 h, stronger effect = lower value
Among all 140,000 compounds or so, about 1,200 (0.86%) were called active. Many of the other results were omitted from the sample, so actives are more common in it than they were.
For each entry below, report its activity change value.
Give bare numbers, in %.

>>> quantitative_readout("CCOC(=O)c1cc(-c2ccc(OC)c(S(=O)(=O)Nc3ccc(OC)cc3OC)c2)on1")
1.78
>>> quantitative_readout("CCOc1ncccc1C(=O)N1CCN(Cc2ccccc2)CC(O)C1 (stereo not given)")
-34.4
>>> quantitative_readout("CC1=C[C@@H](CNC(C)C)[C@H](C(C)C)C[C@H]1Cc1nnc(-c2ccc(N(C)C)cc2)o1")
-0.243
>>> quantitative_readout("CC(C)Cn1c(=O)c(C(=O)NCc2ccc(F)cc2)nc2cccnc21")
8.42

Parameters: items (list). Returns: activity change for each item.
1. Cc1ccccc1CC(=O)N1CCCC(n2cc(-c3nc(-c4ccccc4)no3)nn2)C1 (stereo not given)
2. COc1ccccc1N1CCCc2ncc(C(=O)N3CCCC[C@@H]3c3ccccc3)cc21
3. CC1=C(C(=O)N(C)C)C(c2ccc(Cl)cc2)N2C(CC(=O)NC(C)c3ccccc3)=CSC2=N1 (stereo not given)
4. CN1C[C@H](NS(C)(=O)=O)CCC[C@@H](C(=O)N(C)Cc2cccnc2)CC1=O

1. 9.4
2. -3.23
3. 33.5
4. 5.58

Parameters: items (list). Returns: activity change for each item.
1. COCCNC(=O)c1cc(-c2cccc(Cl)c2)on1
2. Cc1cccc(C(=O)NCCC2CCN(C(=O)Nc3ccc(F)cc3F)CC2)c1
3. Cc1ccc(CNC(=O)CCc2c(C)nc3c(c(C)nn3-c3ccccc3)c2C)cc1
4. CN(C)[C@@H]1C(=O)C(C(N)=O)=C(O)[C@@]2(O)C(=O)C3=C(O)c4c(O)ccc(Cl)c4[C@@H](O)[C@H]3C[C@@H]12
5. COc1ccc(N2CC(c3noc(-c4cc(OC)c(OC)c(OC)c4)n3)CC2=O)cc1 (stereo not given)
6. Cc1cccc(N2CCN(c3ccc(C(=O)O)cc3NC(=O)c3ccccc3F)CC2C)c1 (stereo not given)
7. O=C(NC1CCN(c2nccc(Nc3ccccc3Cl)n2)CC1)c1ccccn1

1: -0.0295; 2: -7.16; 3: -26.3; 4: -40.7; 5: 12.4; 6: -32.2; 7: 0.678

Parameters: items (list). Returns: activity change for each item.
1. O=C(NCc1ccc(F)cc1)C1CCN(c2nccc(Nc3ccccc3F)n2)CC1
2. O=C(Nc1cccc(-c2nc3ccccc3o2)c1)c1cccc(Br)c1
3. CN(C)C[C@@H]1CN(c2ccncn2)C[C@H]1NC(=O)c1cc(C2CC2)[nH]n1
4. COc1ccc(C2Cn3nnc(C(=O)N4CCN(C(=O)c5cccc(Cl)c5)CC4)c3CO2)cc1 (stereo not given)
5. N#Cc1ccc(CN2CC(Oc3ccc(F)cc3F)C2)cc1
6. CCn1c2ccccc2c2cc(CN3CCN(Cc4cccc(Cl)c4)CC3)ccc21
7. O=C(NC1CCCCCC1)C1CCCN(Cc2cccc(-c3cccs3)c2)C1 (stereo not given)

1. 18.1
2. 18.7
3. 3.23
4. 2.61
5. -14.3
6. -4.05
7. 8.71
